# Tested On: T. gondii ME49Luc in IFN-y HeLa, luciferase, 72 h
# Assay Protocol: T. gondii growth inhibition with IFN-gamma, dose response, cell-based, ME49Luc, HeLa, luciferase, 72 h (AID 1259418)
Results filed as inconclusive are left out. Activity calls are given as the source filed them.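 The calls were made as follows: active = fitted half-maximal concentration of signal decrease at or below twice the sample's top tested concentration; inconclusive = flat curve between -70 and -30 percent, or poor fit; inactive = flat within 30 percent, signal rise, or potency above limit.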
Classes used: t for active, f for inactive

* C[C@H](O[C@H]1OCCN(Cc2n[nH]c(=O)[nH]2)[C@H]1c1ccc(F)cc1)c1cc(C(F)(F)F)cc(C(F)(F)F)c1 | t
* C[C@H](CO)N1C[C@H](C)[C@H](CN(C)C(=O)c2cc(Cl)cc(Cl)c2)OCc2ccccc2-c2c(n(C)c3ccccc23)C1=O | t
* CCc1ccccc1S(=O)(=O)N1CCC(C(=O)NCCc2csc(-c3ccccc3)n2)CC1 | t
* O=C(Nc1ccc(-c2nc(-c3ccccc3)co2)cc1)c1cccc(F)c1 | t
* CCS(=O)(=O)N1CCc2nc(-c3cccc(F)c3)nc(NC3CC3)c2C1 | t
* COc1ccc(N(Cc2nc(-c3ccccc3OC)oc2C)S(=O)(=O)c2ccc(C)cc2)cc1 | t
* COc1ccccc1N1CCN(C(=O)CC2Nc3c4ccccc4nc(=S)n3C2=O)CC1 (stereo not drawn) | t
* Cc1c(Cl)cccc1NC(=O)CN1CCC2(CC1)N=C(c1cccc(F)c1)C(=O)N2 | f
* Cc1ccc(CSC2=Nc3ccccc3C3=NC(CCC(=O)NCc4cccs4)C(=O)N23)c(C)c1 (stereo not drawn) | t
* Cc1ccc(S(=O)(=O)N2CCC3(CC2)NCCN=C3NC2CCCCCC2)c(C)c1 | t
* O=C(Cc1cccnc1)N1CC(=O)N2[C@H](CO)[C@H](c3ccc(C#CC4CCCCC4)cc3)[C@@H]2C1 | t
* O=C(Cc1ccccn1)N1CC(=O)N2[C@H](CO)[C@@H](c3ccc(C#CCC4CCCC4)cc3)[C@H]2C1 | t
* COc1ccc(-c2nc(NCCN(C)C3CCCCC3)c3ccccc3n2)cc1 | t
* Cc1ccc(-c2nc(CN(c3ccccc3C)S(=O)(=O)c3cccs3)c(C)o2)cc1 | t
* O=C(CC1N=C2c3ccccc3N=C(SCc3ccc(Cl)cc3)N2C1=O)NCc1cccs1 (stereo not drawn) | t
* Cc1ccccc1S(=O)(=O)N1CC[C@@H]2[C@H]1c1cc(-c3cccc(F)c3)ccc1N(C)[C@H]2CO | t
* O=C(Nc1cccc(F)c1)N1CCCCN2[C@H](C1)[C@@H](c1ccc(C#Cc3cccnc3)cc1)[C@@H]2CO | t
* CC(C)Cc1ccc(S(=O)(=O)N2CCC3(CC2)NCCN=C3NCc2ccccc2)cc1 | t
